Molecular target: T1, recombinant antigen of the extracellular region of CD47 (Sino Biological, Cat: 12283-H08H) (human, UniProt Q08722 19-139)
T1 construct: extracellular domain; also called recombinant CD47 extracellular region; CD47 recombinant protein
T1 sequence (Q08722 19-139 limits assumed): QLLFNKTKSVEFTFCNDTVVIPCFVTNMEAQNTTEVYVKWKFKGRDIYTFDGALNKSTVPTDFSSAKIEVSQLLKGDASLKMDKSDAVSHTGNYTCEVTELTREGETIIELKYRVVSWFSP
Experiment: Fortebio BLI, recombinant CD47 extracellular region
Measured koff by item
// units = s⁻¹; emit number, no label

Here are 2 binders together with their reported answers.
{"columns": ["binder", "uom", "koff"],
 "data": [
  ["140Hm2/hz140L (Table 2) (antibody, V domains shown, also called hz140-Hm/hz140L) VH: QVQLVQSGAEVKKPGASVKVSCKASGYKFTNYAMHWVRQAPGQRLEWMGYINPYNDGIKYNEKFTGRVTITRDTSASTAYMELSSLRSEDTAVYYCAREGDFYANYGRLGFAYWGQGTLVTVSS VL: DIQMTQSPSSLSASVGDRVTITCRASQDITNYLNWYQQKPGKAPKLLIYYTSRLHSGVPSRFSGSGSGTDYTFTISSLQPEDIATYFCQQGDTFPRTFGGGTKVEIK", "s⁻¹", 0.00071],
  ["140Hm9/hz140L (Table 2) (antibody, V domains shown, also called hz140-Hm/hz140L) VH: QVQLVQSGAEVKKPGASVKVSCKASGYKFTNYVMHWVRQAPGQRLEWMGYINPYNEGIKYNEKFTGRVTITRDTSASTAYMELSSLRSEDTAVYYCAREGDFYANYGRLGFAYWGQGTLVTVSS VL: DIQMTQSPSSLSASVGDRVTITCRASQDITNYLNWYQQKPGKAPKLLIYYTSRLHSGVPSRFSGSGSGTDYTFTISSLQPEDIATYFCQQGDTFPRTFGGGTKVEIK", "s⁻¹", 0.000847]
]}

Could you now consider this next binder?
Exercise: Would you mind telling me what koff value was observed for 140Hm5/hz140L (Table 2) (antibody, V domains shown, also called hz140-Hm/hz140L) VH: QVQLVQSGAEVKKPGASVKVSCKASGYKFTNYVMHWVRQAPGQRLEWMGYINPGNDGIKYNEKFTGRVTITRDTSASTAYMELSSLRSEDTAVYYCAREGDFYANYGRLGFAYWGQGTLVTVSS VL: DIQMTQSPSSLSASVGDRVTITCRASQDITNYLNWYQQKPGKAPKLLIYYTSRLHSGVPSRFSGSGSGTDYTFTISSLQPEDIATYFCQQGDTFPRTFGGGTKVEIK ?
Solution: 0.00467
